Experiment: Toxicity in human RBC membrane assessed as hemolysis after 1 hr by spectrophotometry
Type: cell-based, Erythrocyte
Conditions: red blood cells (RBC membrane)
OBSERVATION TYPE: IC50 at 1 hr

>>> value_reported("CNC(=S)N/N=C(\\N)c1ccccn1")
"> 1000 µM"
>>> value_reported("CCNC(=S)N/N=C(\\N)c1ccccn1")
"> 1000 µM"

// below: IC50 at 1 hr requested for another compound
According to the records, this compound `NC(=S)N/N=C(\N)c1ccccn1` displays IC50 at 1 hr of > 1000 µM

====

Test: Cytotoxicity against human T98 cells expressing mutant p53 protein after 48 hrs by MTT assay
Format: functional, cell-based
Details: T98, 48 h
OBSERVATION TYPE: pIC50
Bear in mind: pIC50 is minus log10 of a mol/L concentration; give just that figure.

>>> value_reported("CNC(=S)N/N=C(\\N)c1ccccn1")
4.49
>>> value_reported("CCNC(=S)N/N=C(\\N)c1ccccn1")
3.84

According to the records, this molecule `NC(=S)N/N=C(\N)c1ccccn1` displays pIC50 of 5.44
